Origin of measurements: ChEMBL document CHEMBL4270495

- Tested on: MCF7
- test_details: Cytotoxicity in human MCF7 cells assessed as reduction in cell viability incubated for 24 hrs by MTT assay
- Format: functional, cell-based
- assay_conditions: MCF7, 24 h
measurement_label: IC50 (µM)

| compound | measurement_label | unit_of_measurement | reported_value |
| --- | --- | --- | --- |
| CCOC(=O)/C=C/c1ccc(OC(=O)[C@@]2(C)CC[C@]3(C)CC[C@]4(C)C(=CC(=O)[C@@H]5[C@@]6(C)CC[C@H](OC(=O)[C@@H](N)CCSC)C(C)(C)[C@@H]6CC[C@]54C)[C@H]3C2)cc1 | IC50 | µM | 2.65 |
| COC(=O)/C=C/c1ccc(OC(=O)[C@@]2(C)CC[C@]3(C)CC[C@]4(C)C(=CC(=O)[C@@H]5[C@@]6(C)CC[C@H](OC(=O)[C@@H](N)CC[Se]C)C(C)(C)[C@@H]6CC[C@]54C)[C@H]3C2)c(OC)c1 | IC50 | µM | 1.88 |
| CC1(C)CC[C@]2(C(=O)O)CC[C@]3(C)C(=CC[C@@H]4[C@@]5(C)CC[C@H](O)C(C)(C)[C@@H]5CC[C@]43C)[C@@H]2C1 [OLEANOLIC_ACID] | IC50 | µM | 12.7 |
| CCOC(=O)/C=C/c1cccc(OC(=O)[C@@]2(C)CC[C@]3(C)CC[C@]4(C)C(=CC(=O)[C@@H]5[C@@]6(C)CC[C@H](OC(=O)[C@@H](N)CC[Se]C)C(C)(C)[C@@H]6CC[C@]54C)[C@H]3C2)c1 | IC50 | µM | 2.57 |
| COC(=O)/C=C/c1ccc(OC(=O)[C@@]2(C)CC[C@]3(C)CC[C@]4(C)C(=CC(=O)[C@@H]5[C@@]6(C)CC[C@H](OC(=O)[C@@H](N)CCSC)C(C)(C)[C@@H]6CC[C@]54C)[C@H]3C2)c(OC)c1 | IC50 | µM | 6 |
| COC(=O)/C=C/c1ccc(OC(=O)[C@@]2(C)CC[C@]3(C)CC[C@]4(C)C(=CC(=O)[C@@H]5[C@@]6(C)CC[C@H](OC(=O)[C@@H](N)CCSC)C(C)(C)[C@@H]6CC[C@]54C)[C@H]3C2)cc1 | IC50 | µM | 7.24 |
| COC(=O)/C=C/c1cccc(OC(=O)[C@@]2(C)CC[C@]3(C)CC[C@]4(C)C(=CC(=O)[C@@H]5[C@@]6(C)CC[C@H](OC(=O)[C@@H](N)CCSC)C(C)(C)[C@@H]6CC[C@]54C)[C@H]3C2)c1 | IC50 | µM | 7.2 |
| CC(=O)Oc1ccccc1C(=O)O[C@H]1CC[C@]2(C)[C@H]3CC=C4[C@@H]5[C@@H](C)[C@H](C)CC[C@]5(C(=O)O)CC[C@@]4(C)[C@]3(C)CC[C@H]2C1(C)C | IC50 | µM | 72.2 |
| COC(=O)[C@]12CCC(C)(C)C[C@H]1C1=CC(=O)[C@@H]3[C@@]4(C)CC/C(=N\O)C(C)(C)[C@@H]4CC[C@@]3(C)[C@]1(C)CC2 | IC50 | µM | 3.22 |

====

compounds and their reported IC50
- Tested on: BGC-823
- test_details: Cytotoxicity in human BGC823 cells assessed as reduction in cell viability incubated for 72 hrs by MTT assay
- Format: functional, cell-based
- assay_conditions: BGC-823, 72 h

| sample_smiles | IC50 / µM |
| --- | --- |
| C[C@H]1[C@H](C)CC[C@]2(C(=O)OCCCCN3CCCCC3)CC[C@]3(C)C(=CC[C@@H]4[C@@]5(C)CC[C@H](O)C(C)(C)[C@@H]5CC[C@]43C)[C@H]12 | 5 |
| C[C@H]1[C@H](C)CC[C@]2(C(=O)OCCCBr)CC[C@]3(C)C(=CC[C@@H]4[C@@]5(C)CC[C@H](O)C(C)(C)[C@@H]5CC[C@]43C)[C@H]12 | 6.5 |
| C[C@H]1[C@H](C)CC[C@]2(C(=O)OCCN3CCOCC3)CC[C@]3(C)C(=CC[C@@H]4[C@@]5(C)CC[C@H](O)C(C)(C)[C@@H]5CC[C@]43C)[C@H]12 | 8.8 |
